assay: MHET released, HPLC; higher = more MHET released; extreme values may be limits of the assay; details: PET substrate: cryPow; 70 °C; pH 7.5; 24 h
// label 0 strictly below 0.06 mM in MHET released; label 1 otherwise

sequence_string="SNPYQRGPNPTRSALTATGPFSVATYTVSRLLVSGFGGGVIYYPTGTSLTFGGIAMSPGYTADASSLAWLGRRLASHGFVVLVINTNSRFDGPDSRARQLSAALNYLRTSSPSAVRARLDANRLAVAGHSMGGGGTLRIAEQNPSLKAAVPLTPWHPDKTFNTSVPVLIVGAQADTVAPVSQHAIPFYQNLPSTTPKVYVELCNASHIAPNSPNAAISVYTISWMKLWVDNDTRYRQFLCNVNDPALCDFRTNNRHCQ [LCC-ICCG I6M]" class_assignment="label 1"
sequence_string="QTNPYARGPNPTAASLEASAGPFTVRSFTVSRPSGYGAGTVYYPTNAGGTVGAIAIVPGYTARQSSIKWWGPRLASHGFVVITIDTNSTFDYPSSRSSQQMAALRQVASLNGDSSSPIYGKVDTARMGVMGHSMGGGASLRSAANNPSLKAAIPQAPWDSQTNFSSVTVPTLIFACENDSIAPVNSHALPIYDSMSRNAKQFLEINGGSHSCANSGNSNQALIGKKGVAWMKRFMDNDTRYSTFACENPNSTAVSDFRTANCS [DuraPETase]" class_assignment="label 1"
sequence_string="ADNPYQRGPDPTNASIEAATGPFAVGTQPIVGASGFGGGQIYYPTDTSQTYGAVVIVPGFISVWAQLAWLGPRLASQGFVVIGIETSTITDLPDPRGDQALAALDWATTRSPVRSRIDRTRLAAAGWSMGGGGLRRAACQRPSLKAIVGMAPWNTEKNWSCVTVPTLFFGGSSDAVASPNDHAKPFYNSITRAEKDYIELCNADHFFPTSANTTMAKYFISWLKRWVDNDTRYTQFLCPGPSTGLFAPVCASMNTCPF [CaPETaseM9]" class_assignment="label 0"
sequence_string="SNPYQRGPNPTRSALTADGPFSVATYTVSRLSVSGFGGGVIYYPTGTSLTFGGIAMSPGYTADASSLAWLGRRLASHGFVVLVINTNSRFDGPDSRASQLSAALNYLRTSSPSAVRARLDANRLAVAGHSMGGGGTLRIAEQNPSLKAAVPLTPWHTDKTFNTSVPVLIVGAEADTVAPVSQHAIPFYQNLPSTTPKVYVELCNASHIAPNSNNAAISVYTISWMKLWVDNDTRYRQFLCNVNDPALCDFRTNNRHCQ [LCC-ICCG]" class_assignment="label 1"
sequence_string="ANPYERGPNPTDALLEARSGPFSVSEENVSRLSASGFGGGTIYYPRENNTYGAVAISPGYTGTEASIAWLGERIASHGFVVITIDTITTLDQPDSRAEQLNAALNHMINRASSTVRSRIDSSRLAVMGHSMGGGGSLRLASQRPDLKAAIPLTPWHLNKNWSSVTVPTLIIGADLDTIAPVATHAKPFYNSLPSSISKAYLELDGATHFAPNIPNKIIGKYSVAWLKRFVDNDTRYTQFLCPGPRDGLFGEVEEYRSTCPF [TfCut2]" class_assignment="label 0"
sequence_string="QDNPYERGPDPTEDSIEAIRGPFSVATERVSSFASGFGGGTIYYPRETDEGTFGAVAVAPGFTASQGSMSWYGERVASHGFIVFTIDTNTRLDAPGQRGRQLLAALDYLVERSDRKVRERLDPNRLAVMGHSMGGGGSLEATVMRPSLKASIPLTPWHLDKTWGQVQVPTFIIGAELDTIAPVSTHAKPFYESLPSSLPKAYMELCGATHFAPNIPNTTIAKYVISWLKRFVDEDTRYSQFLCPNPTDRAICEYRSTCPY [Cut190*SS]" class_assignment="label 1"
